Measured IC50, listed per entry.
Test system: C. krusei
Assay: microbe, parasite or virus in culture
Assay type: cell-based, Candida krusei
Conditions: 48 h
Excerpt: Microbial strains: Microbial strains were procured from National Culture Collection of Pathogenic Fungi (NCCPF) at the Postgraduate Institute of Medical Education & Research (PGIMER), Chandigarh and Microbial Type Culture Collection and Gene bank (MTCC) at the Institute of Microbial Technology (IMTECH), Chandigarh, India. Peptides were screened against five different strains of fungi: viz. […]
READOUT NAME: IC50

>  <MOLECULE>
COC(=O)[C@H](Cc1ncn(Cc2ccccc2I)c1I)NC(=O)[C@@H](N)Cc1c[nH]c2ccccc12 [10o, Trp-His[1-(2-iodobenzyl)-5-iodo]-OMe]

>  <VAL>
>35.2 µg/mL

$$$$
>  <MOLECULE>
COC(=O)[C@H](Cc1ncn(Cc2cccc(Br)c2)c1I)NC(=O)[C@@H](N)Cc1c[nH]c2ccccc12 [10m]

>  <VAL>
>35.2 µg/mL

$$$$
>  <MOLECULE>
COC(=O)[C@H](Cc1ncn(Cc2ccc(C(C)(C)C)cc2)c1I)NC(=O)[C@H](Cc1c[nH]c2ccccc12)NC(=O)OC(C)(C)C [9b]

>  <VAL>
>35.2 µg/mL

$$$$

====

Measured IC50, listed per entry.
System: C. krusei
Test: microbe, parasite or virus in culture
Type: cell-based, Candida krusei
Details: 48 h

>  <COMPOUND>
COC(=O)[C@H](Cc1ncn(Cc2cccc(I)c2)c1I)NC(=O)[C@@H](N)Cc1c[nH]c2ccccc12 [10n, Trp-His[1-(3-iodobenzyl)-5-iodo]-OMe]

>  <TESTED SYSTEM>
C. krusei

>  <IC50>
>35.2 µg/mL

$$$$
>  <COMPOUND>
COC(=O)[C@H](Cc1ncn(Cc2ccc([N+](=O)[O-])cc2)c1I)NC(=O)[C@H](Cc1c[nH]c2ccccc12)NC(=O)OC(C)(C)C [9h]

>  <TESTED SYSTEM>
C. krusei

>  <IC50>
>35.2 µg/mL

$$$$
>  <COMPOUND>
COC(=O)[C@H](Cc1ncn(Cc2cc(C(C)(C)C)cc(C(C)(C)C)c2)c1I)NC(=O)[C@@H](N)Cc1c[nH]c2ccccc12 [10d]

>  <TESTED SYSTEM>
C. krusei

>  <IC50>
>35.2 µg/mL

$$$$

====

Measured IC50, listed per entry.
Test system: C. krusei
Assay: microbe, parasite or virus in culture
Type: cell-based, Candida krusei
Conditions: 48 h
READOUT NAME: IC50

>  <COMPOUND>
COC(=O)[C@H](Cc1ncn(Cc2ccc(C(C)C)cc2)c1I)NC(=O)[C@@H](N)Cc1c[nH]c2ccccc12 [10c]

>  <READOUT NAME>
IC50

>  <VAL>
>35.2 µg/mL

$$$$
>  <COMPOUND>
COC(=O)[C@H](Cc1ncn(Cc2ccccc2I)c1I)NC(=O)[C@H](Cc1c[nH]c2ccccc12)NC(=O)OC(C)(C)C [9o]

>  <READOUT NAME>
IC50

>  <VAL>
>35.2 µg/mL

$$$$
>  <COMPOUND>
COC(=O)[C@H](Cc1ncn(Cc2ccccc2)c1I)NC(=O)[C@@H](N)Cc1c[nH]c2ccccc12 [10a]

>  <READOUT NAME>
IC50

>  <VAL>
>35.2 µg/mL

$$$$

====

Assay: in vitro
Settings: human, HEK-293 cells
Measured CC50 at 18 h, listed per entry.
READOUT NAME: CC50 at 18 h

>  <COMPOUND>
COC(=O)[C@H](Cc1ncn(Cc2cc(C(C)(C)C)cc(C(C)(C)C)c2)c1I)NC(=O)[C@@H](N)Cc1c[nH]c2ccccc12 [10d]

>  <READOUT NAME>
CC50 at 18 h

>  <VAL>
> 100 µg/mL

$$$$
>  <COMPOUND>
COC(=O)[C@H](Cc1ncn(Cc2ccccc2I)c1I)NC(=O)[C@@H](N)Cc1c[nH]c2ccccc12 [10o, Trp-His[1-(2-iodobenzyl)-5-iodo]-OMe]

>  <READOUT NAME>
CC50 at 18 h

>  <VAL>
> 100 µg/mL

$$$$

====

Measured CC50 at 18 h, listed per entry.
Test: in vitro
Conditions: human, HeLa cells
READOUT NAME: CC50 at 18 h

>  <MOLECULE>
COC(=O)[C@H](Cc1ncn(Cc2ccccc2I)c1I)NC(=O)[C@@H](N)Cc1c[nH]c2ccccc12 [10o, Trp-His[1-(2-iodobenzyl)-5-iodo]-OMe]

>  <READOUT NAME>
CC50 at 18 h

>  <VAL>
> 100 µg/mL

$$$$
>  <MOLECULE>
COC(=O)[C@H](Cc1ncn(Cc2cc(C(C)(C)C)cc(C(C)(C)C)c2)c1I)NC(=O)[C@@H](N)Cc1c[nH]c2ccccc12 [10d]

>  <READOUT NAME>
CC50 at 18 h

>  <VAL>
> 100 µg/mL

$$$$

====

Test system: S. aureus
Assay: microbe, parasite or virus in culture
Format: cell-based, Staphylococcus aureus
Details: 48 h
Measured IC50, listed per entry.

>  <COMPOUND>
COC(=O)[C@H](Cc1ncn(Cc2cccc(I)c2)c1I)NC(=O)[C@@H](N)Cc1c[nH]c2ccccc12 [10n, Trp-His[1-(3-iodobenzyl)-5-iodo]-OMe]

>  <TESTED SYSTEM>
S. aureus

>  <INEQUALITY SIGN>
>

>  <IC50, µg/mL>
35.2

$$$$
>  <COMPOUND>
COC(=O)[C@H](Cc1ncn(Cc2ccc(C(C)(C)C)cc2)c1I)NC(=O)[C@@H](N)Cc1c[nH]c2ccccc12 [10b]

>  <TESTED SYSTEM>
S. aureus

>  <INEQUALITY SIGN>
=

>  <IC50, µg/mL>
35.2

$$$$
>  <COMPOUND>
COC(=O)[C@H](Cc1ncn(Cc2cc(C(C)(C)C)cc(C(C)(C)C)c2)c1I)NC(=O)[C@@H](N)Cc1c[nH]c2ccccc12 [10d]

>  <TESTED SYSTEM>
S. aureus

>  <INEQUALITY SIGN>
=

>  <IC50, µg/mL>
17.6

$$$$

====

Tested on: E. faecalis
Test: microbe, parasite or virus in culture
Type: cell-based, Enterococcus faecalis
Conditions: 48 h
Measured MIC, listed per entry.

>  <MOLECULE>
COC(=O)[C@H](Cc1ncn(Cc2cccc(C(F)(F)F)c2)c1I)NC(=O)[C@@H](N)Cc1c[nH]c2ccccc12 [10e]

>  <MIC>
>64.0 µg/mL

$$$$
>  <MOLECULE>
COC(=O)[C@H](Cc1ncn(Cc2cccc(Cl)c2)c1I)NC(=O)[C@@H](N)Cc1c[nH]c2ccccc12 [10l]

>  <MIC>
>64.0 µg/mL

$$$$
>  <MOLECULE>
COC(=O)[C@H](Cc1ncn(Cc2ccccc2I)c1I)NC(=O)[C@@H](N)Cc1c[nH]c2ccccc12 [10o, Trp-His[1-(2-iodobenzyl)-5-iodo]-OMe]

>  <MIC>
32.0 µg/mL

$$$$
>  <MOLECULE>
COC(=O)[C@H](Cc1ncn(Cc2cc(C(C)(C)C)cc(C(C)(C)C)c2)c1I)NC(=O)[C@@H](N)Cc1c[nH]c2ccccc12 [10d]

>  <MIC>
32.0 µg/mL

$$$$
>  <MOLECULE>
COC(=O)[C@H](Cc1ncn(Cc2cccc(F)c2)c1I)NC(=O)[C@@H](N)Cc1c[nH]c2ccccc12 [10k]

>  <MIC>
>64.0 µg/mL

$$$$
>  <MOLECULE>
COC(=O)[C@H](Cc1ncn(Cc2ccc(C(C)(C)C)cc2)c1I)NC(=O)[C@@H](N)Cc1c[nH]c2ccccc12 [10b]

>  <MIC>
>64.0 µg/mL

$$$$
>  <MOLECULE>
COC(=O)[C@H](Cc1ncn(Cc2cccc(I)c2)c1I)NC(=O)[C@@H](N)Cc1c[nH]c2ccccc12 [10n, Trp-His[1-(3-iodobenzyl)-5-iodo]-OMe]

>  <MIC>
>64.0 µg/mL

$$$$
>  <MOLECULE>
COC(=O)[C@H](Cc1ncn(Cc2ccc(C(C)C)cc2)c1I)NC(=O)[C@@H](N)Cc1c[nH]c2ccccc12 [10c]

>  <MIC>
>64.0 µg/mL

$$$$
